Source: paper PMC5383425

Biological target: T1, extracellular domain of A. thaliana TDR (residues 30-642), Q9FII5
T1 chain: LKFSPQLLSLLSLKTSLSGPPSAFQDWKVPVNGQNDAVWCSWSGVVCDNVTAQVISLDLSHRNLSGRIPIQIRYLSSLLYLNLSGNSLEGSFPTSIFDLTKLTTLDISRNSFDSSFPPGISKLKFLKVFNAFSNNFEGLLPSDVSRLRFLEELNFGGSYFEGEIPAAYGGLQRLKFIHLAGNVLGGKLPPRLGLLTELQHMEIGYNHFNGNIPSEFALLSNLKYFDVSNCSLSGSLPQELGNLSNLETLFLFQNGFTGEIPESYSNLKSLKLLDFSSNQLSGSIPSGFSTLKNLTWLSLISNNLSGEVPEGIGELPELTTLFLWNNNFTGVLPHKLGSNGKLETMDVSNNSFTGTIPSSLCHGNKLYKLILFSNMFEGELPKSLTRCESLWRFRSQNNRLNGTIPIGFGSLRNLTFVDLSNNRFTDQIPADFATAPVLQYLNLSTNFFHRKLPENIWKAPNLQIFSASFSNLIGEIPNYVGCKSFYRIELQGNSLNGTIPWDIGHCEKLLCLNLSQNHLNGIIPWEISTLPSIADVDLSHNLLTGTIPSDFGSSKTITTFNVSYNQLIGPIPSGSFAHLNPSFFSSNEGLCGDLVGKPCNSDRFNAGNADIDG
Assay: ITC
Conditions: chain shown with the change;; parent: 10215 ± 6281 nM
PROPERTY NAME: Kd (nM)
Give bare numbers, in nM.

[in] // fetch Kd given entry HLVPSGPNPLHN [CLE9 peptide R1H]
[out] 219
